# Tested on: ICAM-1 Expression on HeLa Cells
# measurement_notes: Cell assay HeLa: ELISA of TNFα-stimulated ICAM-1 expression on HeLa cells
# Format: cell-based
# reported_conditions: Homo sapiens; HeLa cells, TNFα stimulation, ICAM-1 expression
pIC50: −log10 of the molar value.
attribute_measured: pIC50

CCC(F)(F)c1cc(N2CCC(S(C)(=O)=O)CC2)nc2sc(C(N)=O)c(N)c12 [Compound 115] : 6.15

a = CCCc1cc(N2CCC(S(C)(=O)=O)CC2)nc2sc(C(N)=O)c(N)c12 [Compound 100, reference compound]
b = CS(=O)(=O)C1CCN(c2cc(C(F)(F)F)c3c(N)c(C(N)=O)sc3n2)CC1 [Compound 101]
Ask: Form: Entry with minimum pIC50 (choose one): a / b State the label of the item chosen.
Result: b
(b: 5.49, a: 6.14)
